# Test system: Toxoplasma gondii tachyzoites of RH strain
# procedure_details: Plaque assay (7 days) in NHDF monolayers infected with T. gondii
# Type: cell-based
# recorded_conditions: 7 days of treatment, two independent experiments, listed as verdinexor

>  <compound>
O=C(/C=C\n1cnc(-c2cc(C(F)(F)F)cc(C(F)(F)F)c2)n1)NNc1ccccn1 [Verdinexor]

>  <IC50>
≤ 200 nM

$$$$

====

We begin with a simple list: items and their reported CC50.
# Test system: NHDF cells
# procedure_details: Cytotoxicity assay (MTS, 7 days)
# Type: cell-based, Human
# recorded_conditions: MTS, ND = 100% viability up to 10 µM, read-out: Cytotoxicity against NHDF (7 Days) CC50
outcome_measure: CC50

>  <compound>
Clc1cc(Cl)c2c(c1)CCc1ccccc1C2n1ccnc1 (centres unmarked) [Eberconazole]

>  <outcome_measure>
CC50

>  <measured_value>
> 10 µM

$$$$
>  <compound>
Cn1cc(NC(=O)c2cc(NC(=O)c3ccc(/C=C/c4cnc5ccccc5c4)cc3)cn2C)cc1C(=O)NCCN1CCOCC1 [MMV1634391]

>  <outcome_measure>
CC50

>  <measured_value>
> 10 µM

$$$$

====

# procedure_details: Cytotoxicity assay (MTS, 7 days)
# Format: cell-based, Human
# recorded_conditions: human, NHDF cells, MTS, concentrations up to 10 µM, two independent experiments, read-out: Cytotoxicity against NHDF (7 Days) CC50
outcome_measure: CC50 at 7 days (µM)

>  <compound>
OCCC#Cc1nc(-c2ccc(F)cc2)c(-c2ccncc2)n1CCCc1ccccc1

>  <measured_value>
12.6

$$$$
>  <compound>
Cc1cc(C2CCCCC2)n(O)c(=O)c1

>  <measured_value>
4

$$$$
>  <compound>
C=C[C@]1(C)C[C@@H](OC(=O)CS[C@@H]2C[C@H]3CC[C@@H](C2)N3C)[C@]2(C)[C@H](C)CC[C@]3(CCC(=O)[C@H]32)[C@@H](C)[C@@H]1O

>  <measured_value>
9.98

$$$$
>  <compound>
COc1cc(NCc2ccc3nc(N)nc(N)c3c2C)cc(OC)c1OC [Trimetrexate]

>  <measured_value>
11.9

$$$$
>  <compound>
NC(=S)N/N=C/c1ncccc1N

>  <measured_value>
2.79

$$$$
>  <compound>
COc1cc(C)c2c(Oc3cccc(C(F)(F)F)c3)c(OC)cc(NC(C)CCCN)c2n1 (stereo not shown)

>  <measured_value>
16.3

$$$$
>  <compound>
CC[C@H]1OC(=O)[C@H](C)[C@@H](O[C@H]2C[C@@](C)(OC)[C@@H](O)[C@H](C)O2)[C@H](C)[C@@H](O[C@@H]2O[C@H](C)C[C@H](N(C)C)[C@H]2O)[C@](C)(O)C[C@@H](C)C(=O)[C@H](C)[C@@H](O)[C@]1(C)O

>  <measured_value>
11.9

$$$$

====

# Tested on: Toxoplasma gondii tachyzoites of RH strain
# procedure_details: Plaque assay (7 days) in NHDF monolayers infected with T. gondii
# Format: cell-based
# recorded_conditions: 7 days of treatment, two independent experiments
outcome_measure: IC50 (nM)

>  <compound>
O=C(/C=C\n1cnc(-c2cc(C(F)(F)F)cc(C(F)(F)F)c2)n1)NNc1ccccn1 [Verdinexor]

>  <measurement_target>
Toxoplasma gondii tachyzoites of RH strain

>  <inequality_symbol>
=

>  <measured_value>
70

$$$$
>  <compound>
CC[C@H]1OC(=O)[C@H](C)[C@@H](O[C@H]2C[C@@](C)(OC)[C@@H](O)[C@H](C)O2)[C@H](C)[C@@H](O[C@@H]2O[C@H](C)C[C@H](N(C)C)[C@H]2O)[C@](C)(O)C[C@@H](C)C(=O)[C@H](C)[C@@H](O)[C@]1(C)O

>  <measurement_target>
Toxoplasma gondii tachyzoites of RH strain

>  <inequality_symbol>
=

>  <measured_value>
131

$$$$
>  <compound>
C=C[C@]1(C)C[C@@H](OC(=O)CS[C@@H]2C[C@H]3CC[C@@H](C2)N3C)[C@]2(C)[C@H](C)CC[C@]3(CCC(=O)[C@H]32)[C@@H](C)[C@@H]1O

>  <measurement_target>
Toxoplasma gondii tachyzoites of RH strain

>  <inequality_symbol>
<

>  <measured_value>
100

$$$$

====

# Tested on: NHDF cells
# procedure_details: Cytotoxicity assay (MTS, 7 days)
# Type: cell-based, Human
# recorded_conditions: MTS, concentrations up to 10 µM, two independent experiments, read-out: Cytotoxicity against NHDF (7 Days) CC50
Lab note: cut-off is 10 µM. Strictly less in CC50 is satisfied. Exactly 10 µM or more is not satisfied.

>  <molecule>
COc1cc(NS(=O)(=O)c2ccc(C)cc2)c2ncccc2c1 [DNDI1417411]

>  <measurement_target>
NHDF cells

>  <label_class>
not satisfied

$$$$
>  <molecule>
Fc1ccc(-c2nc(-c3c[nH]c4ccc(Br)cc34)[nH]c2-c2ccc(F)cc2)cc1 [MMV1593537]

>  <measurement_target>
NHDF cells

>  <label_class>
satisfied

$$$$
>  <molecule>
Oc1cccc(C(Nc2nccs2)c2ccc3cccnc3c2O)c1 (stereo not drawn) [MMV642550]

>  <measurement_target>
NHDF cells

>  <label_class>
satisfied

$$$$
>  <molecule>
O=S(=O)(Nc1cccc2cccnc12)c1ccccc1 [MMV1578890]

>  <measurement_target>
NHDF cells

>  <label_class>
not satisfied

$$$$
>  <molecule>
Oc1c(C(Nc2nc3ccccc3s2)c2ccc(OC(F)F)cc2)ccc2cccnc12 (stereo not drawn) [MMV019724]

>  <measurement_target>
NHDF cells

>  <label_class>
satisfied

$$$$
>  <molecule>
CCc1nc(N)nc(N)c1C#CC(C)c1cc(OC)cc(-c2ccncc2)c1 (stereo not drawn) [MMV1580844]

>  <measurement_target>
NHDF cells

>  <label_class>
not satisfied

$$$$
>  <molecule>
Nc1nc(Nc2ccc3nc(-c4ccc(F)cc4)cc(N)c3c2)cc(-c2ccccc2)n1 [MMV1593541]

>  <measurement_target>
NHDF cells

>  <label_class>
satisfied

$$$$
>  <molecule>
Cc1nc2ccc(Oc3ccccc3)cc2c2c1CCN2CCc1ccccc1 [MMV1634399]

>  <measurement_target>
NHDF cells

>  <label_class>
not satisfied

$$$$
>  <molecule>
COc1ccc2sc3c(c2c1)NC(C)CNC3=O (stereo not drawn) [MMV1782115]

>  <measurement_target>
NHDF cells

>  <label_class>
satisfied

$$$$

====

# System: NHDF cells
# procedure_details: Cytotoxicity assay (MTS, 7 days)
# Type: cell-based, Human
Lab note: cut-off is 30. Strictly less in SI (Selectivity Index, CC50 NHDF cells/IC50 T. gondii) is True. Exactly 30 or more is False.

>  <compound>
COc1cc(NCc2ccc3nc(N)nc(N)c3c2C)cc(OC)c1OC [Trimetrexate]

>  <measurement_target>
NHDF cells

>  <label_class>
False

$$$$
>  <compound>
Cc1cc(C2CCCCC2)n(O)c(=O)c1

>  <measurement_target>
NHDF cells

>  <label_class>
True

$$$$
>  <compound>
NC(=S)N/N=C/c1ncccc1N

>  <measurement_target>
NHDF cells

>  <label_class>
True

$$$$
>  <compound>
CCCCC(CC)CNC(=N)NC(=N)NCCCCCCNC(=N)NC(=N)NCC(CC)CCCC (stereo not drawn)

>  <measurement_target>
NHDF cells

>  <label_class>
True

$$$$
>  <compound>
C=C[C@]1(C)C[C@@H](OC(=O)CS[C@@H]2C[C@H]3CC[C@@H](C2)N3C)[C@]2(C)[C@H](C)CC[C@]3(CCC(=O)[C@H]32)[C@@H](C)[C@@H]1O

>  <measurement_target>
NHDF cells

>  <label_class>
False

$$$$
>  <compound>
OCCC#Cc1nc(-c2ccc(F)cc2)c(-c2ccncc2)n1CCCc1ccccc1

>  <measurement_target>
NHDF cells

>  <label_class>
False

$$$$
>  <compound>
CC[C@H]1OC(=O)[C@H](C)[C@@H](O[C@H]2C[C@@](C)(OC)[C@@H](O)[C@H](C)O2)[C@H](C)[C@@H](O[C@@H]2O[C@H](C)C[C@H](N(C)C)[C@H]2O)[C@](C)(O)C[C@@H](C)C(=O)[C@H](C)[C@@H](O)[C@]1(C)O

>  <measurement_target>
NHDF cells

>  <label_class>
False

$$$$
>  <compound>
CC1=C(/C=C/C(C)=C/C=C/C(C)=C/C(=O)Nc2ccc(O)cc2)C(C)(C)CCC1 [Fenretinide]

>  <measurement_target>
NHDF cells

>  <label_class>
True

$$$$
>  <compound>
COc1cc(C)c2c(Oc3cccc(C(F)(F)F)c3)c(OC)cc(NC(C)CCCN)c2n1 (stereo not drawn)

>  <measurement_target>
NHDF cells

>  <label_class>
True

$$$$

====

# procedure_details: Cytotoxicity assay (MTS, 7 days)
# Format: cell-based, Human
# recorded_conditions: human, NHDF cells, MTS, concentrations up to 10 µM, two independent experiments, read-out: Cytotoxicity against NHDF (7 Days) CC50
We begin with a simple list: items and their reported CC50 at 7 days.
outcome_measure: CC50 at 7 days (nM)

>  <compound>
O=C(/C=C\n1cnc(-c2cc(C(F)(F)F)cc(C(F)(F)F)c2)n1)NNc1ccccn1 [Verdinexor]

>  <outcome_measure>
CC50 at 7 days

>  <units_symbol>
nM

>  <measured_value>
2860

$$$$
>  <compound>
CCCCC(CC)CNC(=N)NC(=N)NCCCCCCNC(=N)NC(=N)NCC(CC)CCCC (stereo not drawn)

>  <outcome_measure>
CC50 at 7 days

>  <units_symbol>
nM

>  <measured_value>
1630

$$$$
>  <compound>
CC1=C(/C=C/C(C)=C/C=C/C(C)=C/C(=O)Nc2ccc(O)cc2)C(C)(C)CCC1 [Fenretinide]

>  <outcome_measure>
CC50 at 7 days

>  <units_symbol>
nM

>  <measured_value>
26700

$$$$
